Data origin, for the record: ChEMBL document CHEMBL1137043

Exercise: for every item that follows, state its recorded pKi.
Target: Tyrosine-protein phosphatase non-receptor type 1 (Homo sapiens, UniProt P18031)
Sequence (P18031 whole entry): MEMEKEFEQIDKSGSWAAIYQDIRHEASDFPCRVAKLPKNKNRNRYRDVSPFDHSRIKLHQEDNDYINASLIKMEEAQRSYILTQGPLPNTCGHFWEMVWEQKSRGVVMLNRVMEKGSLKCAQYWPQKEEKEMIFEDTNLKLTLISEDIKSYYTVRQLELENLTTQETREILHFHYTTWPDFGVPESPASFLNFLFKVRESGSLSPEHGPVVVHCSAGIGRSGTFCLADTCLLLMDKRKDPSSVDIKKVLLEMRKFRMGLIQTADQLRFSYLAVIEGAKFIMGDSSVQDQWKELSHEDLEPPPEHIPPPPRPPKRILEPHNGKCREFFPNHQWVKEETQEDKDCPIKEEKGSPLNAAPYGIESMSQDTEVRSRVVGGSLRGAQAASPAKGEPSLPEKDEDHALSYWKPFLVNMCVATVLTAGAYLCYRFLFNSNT
*1 amine or outer side, *2 acyl side, *3 side chain or, on linkers, in order; H or OH if unused. Where a SMILES comes first, the peptide text is derived from it. [ ]: non-standard residue; d: D form. X1 = O=C(O)COc1ccc(C[C@H](N[*:1])C(=O)[*:2])cc1C(=O)O
Lab note: report pKi as minus log10 of the concentration in molar units, number only.

[in] Query (compound): CC[C@H](C)[C@H](NC(=O)[C@H](Cc1ccc(OCC(=O)O)c(C(=O)O)c1)NC(=O)[C@H](CC(=O)O)NC(C)=O)C(=O)N[C@@H](CCCN=C(N)N)C(=O)NCC(=O)NCC(=O)NCC(N)=O (Ac-D[X1]IRGGG-NH2) ; field requested: pKi
[out] 4.74

[in] Follow-up entry: CCC(C)[C@H](NC(=O)C(Cc1ccc(OCC(=O)O)c(C(=O)O)c1)NC(=O)[C@H](CC(=O)O)NC(C)=O)C(N)=O (some centres not stated)
[out] 4.39
